- assayed.system: HLA-A*0201 (Human)
- test.description: competition with 125I-labelled standard peptide for purified HLA, gel filtration
Kindly state binding affinity ratio (IC50 of standard peptide / IC50 of test peptide) for each of the entries shown.

// returns reported binding affinity ratio (IC50 of standard peptide / IC50 of test peptide) for input GLSPTVWL (modifications not checked) [HBV ENV 348 peptide GLSPTVWL]
0.0036

// returns reported binding affinity ratio (IC50 of standard peptide / IC50 of test peptide) for input GLSPTVWLSVI (modifications not checked) [HBV ENV 348 peptide …]
0.0036

// returns reported binding affinity ratio (IC50 of standard peptide / IC50 of test peptide) for input GLLGFAAPFT (modifications not checked) [HBV POL 627 peptide …]
0.0049

// returns reported binding affinity ratio (IC50 of standard peptide / IC50 of test peptide) for input GVWIRTPPA (modifications not checked) [HBV NUC 123 peptide …]
0.003
